This collection of values is drawn from PubChem BioAssay.

- assay_notes: PSAC antagonists in infected red cells, primary screen, cell-based, P. falciparum Indochina, OD700, 1 h (AID 1154)
- measurement_setup: P. falciparum Indochina infected RBC osmotic lysis, called active from +8 up or from −8 down
Calls of active or inactive are those of the source.
Reply using exactly one outcome from 1.0 for active, 0.0 for inactive

COc1ccccc1CN1C(=O)c2ccccc2[C@@]2(Cc3ccccc3N(CC(C)C)C2=O)[C@@H]1c1ccc(CO)cc1; 0.0
C=CCOC(=O)[C@@H]1[C@H]2C(=O)O[C@H](c3ccccc3)[C@H](c3ccccc3)N2[C@H](c2ccc(OCCOC(=O)[C@@H]3C[C@@H]4C(=O)NCC(=O)N4[C@@H]3c3ccc(O)cc3)cc2)[C@@]12C(=O)Nc1ccc(I)cc12; 0.0
COc1cc(Br)cc(C(O)C2C=CC3C(=O)N(C)C(=O)C3N2N2CCCCC2)c1OC (stereo not given); 0.0
O=C1C[C@@](C(=O)NCC(F)(F)F)(c2ccc([N+](=O)[O-])cc2)[C@@H](c2ccc(CO)cc2I)N1C1CCCCC1; 1.0
C=CC[C@]1(C(=O)NCCCOC)N=C(c2ccc(OCCCO)cc2)O[C@H]1c1ccccc1CN=[N+]=[N-]; 1.0
C=CC[C@@]12N=C(c3ccc(OCCCO)cc3)O[C@@H]1c1ccccc1N(C)C2=O; 1.0
O=C(NCCN1CCOCC1)[C@@H]1c2ccccc2C(=O)N(C2CCCCC2)[C@H]1c1ccc(CO)cc1; 0.0
COc1cc2c(cc1OC)CN(C(=O)[C@H]1[C@@H]3C(=O)O[C@@H](c4ccccc4)[C@@H](c4ccccc4)N3[C@@H](c3ccc(O)cc3)[C@]13C(=O)Nc1ccc(C#CCCO)cc13)CC2; 0.0
O=C(NCCN1CCOCC1)C1N=C(c2ccc(OCCCO)cc2)N(c2ccccc2)O1 (stereo not given); 0.0
CC(C)C(O)C1C=CC2C(=O)NC(=O)C2N1Nc1ccc(Cl)cc1Cl (stereo not given); 0.0

Just curious, what result did CC(C)=CCN[C@H](CO)c1ccccc1 get here?
0.0

Just curious, what result did COC(=O)[C@@]1(CCC(=O)OC(C)(C)C)N=C(c2ccc(OCCCO)cc2)O[C@H]1c1ccccc1N=[N+]=[N-] get here?
1.0

Just curious, what result did NC(=O)NCC#Cc1ccc2c(c1)[C@]1(C(=O)N2)[C@H](c2ccccc2OCCO)N2[C@H](c3ccccc3)[C@H](c3ccccc3)OC(=O)[C@H]2[C@@H]1C(=O)Nc1nc2ccccc2s1 get here?
0.0

Just curious, what result did O=C1OCCC/C=C\[C@H]2OC34C=CCN(Cc5ccccc5)C(=O)[C@H]3N(CCCO)C(=O)[C@@H]4C12 (stereo not given in full) get here?
0.0

Just curious, what result did COC(=O)C[C@H]1O[C@]2(C(=O)N(C)c3ccccc32)[C@@H](C)[C@@H]1[Si](C)(C)F get here?
0.0

---

- assay_notes: cell viability in Huh7 cells, primary screen, cytotoxicity control for HCV replication inhibitor project, CellTiter-Glo luminescence, basal, 48 h (AID 1143);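 further: Huh7 hepatoma cells carrying a hepatitis C replication reporter with no stimulus; test concentration not given here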
- measurement_setup: Huh7 HCV replicon, higher = more signal, called active from +8 up or from −8 down
Active and inactive are the calls of the source.
measured_endpoint: z-score

Observe how each entry below is paired with its result.
COc1cc(C(O)C2C=CC3C(=O)NC(=O)C3N2Nc2ccccn2)cc(OC)c1OC (stereo not given); 0.969 (inactive)
CC(C)N1C(=O)C[C@@](C(=O)NCC(F)(F)F)(c2ccc([N+](=O)[O-])cc2)[C@H]1c1ccc(CO)cc1; -4.06 (inactive)
[N-]=[N+]=Nc1ccccc1[C@@H]1OC(c2ccc(OCCCO)cc2)=N[C@]1(CCS(=O)(=O)c1ccccc1)C(N)=O; -1.12 (inactive)
C=CCNC(=O)[C@@H]1[C@H]2C(=O)O[C@H](c3ccccc3)[C@H](c3ccccc3)N2[C@H](c2ccc(OCCO)cc2)[C@@]12C(=O)Nc1ccc(C#CCC(C(=O)OC)C(=O)OC)cc12; -3.86 (inactive)

Continue with the next compound.
Requested field: z-score. Item: CCCCC(CC)C(O)C1C=CC2C(=O)N(Cc3ccccc3)C(=O)C2N1n1cnnc1 (stereo not given)
-0.114 (inactive)
